Test system: MARIMO;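 also: after 48 h exposure read by CellTiter-Glo luminescence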
EXPERIMENT SUMMARY: cell viability relative to vehicle control; higher = less cytotoxic
ASSAY CONDITIONS: 10 µM; SRSF2 genotype: SRSF2 P95H/wt
Counter-ions that a name gives are not always drawn.
MEASURED METRIC: cell viability (%)
Answer in %, number only, no unit symbol.

Previously resolved entries follow.
[
  {
    "COMPOUND": "CNC(=O)c1ccc2cc([C@@]3(O)CCn4cncc43)ccc2c1",
    "STUDY TARGET": "MARIMO",
    "UNIT SPEC": "%",
    "QUANTITATIVE RESULT": 93.2
  },
  {
    "COMPOUND": "C[C@H](Cc1cc2c(c(C(N)=O)c1)N(CCCO)CC2)NCCOc1ccccc1OCC(F)(F)F",
    "STUDY TARGET": "MARIMO",
    "UNIT SPEC": "%",
    "QUANTITATIVE RESULT": 86.2
  },
  {
    "COMPOUND": "Oc1ccc2ccccc2c1N=Nc1ccc(N=Nc2ccccc2)cc1",
    "STUDY TARGET": "MARIMO",
    "UNIT SPEC": "%",
    "QUANTITATIVE RESULT": 82.6
  },
  {
    "COMPOUND": "O=C(c1cn(Cc2cncn2Cc2ccc(Br)cc2)cc1-c1cccc2ccccc12)N1CCOCC1",
    "STUDY TARGET": "MARIMO",
    "UNIT SPEC": "%",
    "QUANTITATIVE RESULT": 34.1
  },
  {
    "COMPOUND": "Cc1nc(C)c(C)nc1C [Ligustrazine hydrochloride]",
    "STUDY TARGET": "MARIMO",
    "UNIT SPEC": "%",
    "QUANTITATIVE RESULT": 89.8
  },
  {
    "COMPOUND": "Cc1ccc(S(=O)(=O)NC(=O)NN2CC3CCCC3C2)cc1 (stereo not drawn) [Gliclazide (Diamicron)]",
    "STUDY TARGET": "MARIMO",
    "UNIT SPEC": "%",
    "QUANTITATIVE RESULT": 106
  }
]

Lookup: // returns reported cell viability for input C[C@]12CCC(=O)C=C1[C@@H]1C[C@@H]1[C@H]1[C@@H]3[C@@H]4C[C@@H]4[C@@]4(CCC(=O)O4)[C@@]3(C)CC[C@@H]12
Found: 82

Lookup: # get_value(readout='cell viability', item= Clc1ccc(C(c2c[nH]c3ccccc23)c2c[nH]c3ccccc23)cc1 )
Found: 86.3

Lookup: Please report the recorded cell viability for COc1cc([C@@H]2c3cc4c(cc3[C@@H](O[C@@H]3O[C@@H]5CO[C@@H](C)O[C@H]5[C@H](O)[C@H]3O)[C@H]3COC(=O)[C@H]23)OCO4)cc(OC)c1O [Etoposide (VP-16)] .
Found: 7.2

Lookup: // query cell viability value for entry NC(=O)c1ccc(N(C(N)=O)c2c(F)cccc2F)nc1-c1ccc(F)cc1F
Found: 94

Lookup: Reported cell viability for CCc1cccc2c3c([nH]c12)C(CC)(CC(=O)O)OCC3 (stereo not drawn) : what is it?
Found: 89.7

Lookup: Request the reported cell viability associated with Cc1ncc(CO)c(CO)c1O [Metadoxine]
Found: 98.1

Lookup: Which value of cell viability has been reported for COC(=O)c1ccc2c(c1)[nH]c1ncnc(NCCCN3CCCCC3)c12 in the records?
Found: 49.9
